src = PubChem BioAssay

Listed next: entries and their corresponding RAM network inhibition.
- ASSAY_DETAILS: RAM signaling pathway blockade in yeast – S. cerevisiae, Pdr1DBD-CYC8 efflux-inhibited sensitized strain, primary screen (AID 1298);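 note: 0% = DMSO untreated cells without growth and 100% = 10 µM 1-NA-PP1 full growth; higher means more yeast growth rescued from 5-FOA killing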
- RECORDED_CONDITIONS: S. cerevisiae cbk1-as DSE1-URA3 strain, 5-FOA growth OD615, 2 d; at 50 µM; hits give high values
Number in %, nothing else.

In [3]: df
Out[3]:
                                   compound  test_result
0  O=C(c1coc2ccccc2c1=O)N1CCN(c2cccc(C(F)(F)F)c2)CC1         5.68
1   CCOC(=O)/C=C/S(=O)(=O)c1ccc(NC(C)=O)cc1         5.29
2     COc1ccccc1C(=O)N1CCN(c2cccc(Cl)c2)CC1         2.22
3  CN(CCNC(=O)C1CC(=O)N(C2CCCC2)C1)Cc1ccccc1 (stereo unspecified)         0.52
4                 CSC1=NCCN1C(=O)COc1ccccc1         2.21

Quick one: RAM network inhibition of `Cc1nnc(SCC(=O)Nc2ccc3c(c2)COC3=O)n1-c1ccccc1` ?
1.16

Give its RAM network inhibition value. Item: `CCOC(=O)CSc1nnc(CSc2nc3sc4c(c3c(=O)[nH]2)CCC4)n1C`
6.56

Could you tell me which RAM network inhibition is on file for `COC(=O)c1ccc(OC(=O)c2nn(C)cc2Cl)c(OC)c1` ?
-0.57

So what's the measured RAM network inhibition for this one? `Cc1ccc(-c2nc(CS(=O)(=O)CC(=O)NCCCN3CCN(C)CC3)c(C)o2)cc1`
-0.16

Name the reported RAM network inhibition value associated with the compound `COc1ccc(C(=O)OCCN2C(=O)c3ccccc3C2=O)cc1`
7.05

Which RAM network inhibition is listed for `c1ccc(-n2ncc3c(NCc4cccnc4)ncnc32)cc1` ?
0.31

Quick one: RAM network inhibition for O=C1CCc2cc(S(=O)(=O)NC(C(=O)NCc3cccnc3)c3ccccc3)ccc2N1 (stereo unspecified) ?
3.79

Record request: RAM network inhibition value, item `O=C(NCCCN1CCCC1)c1ccc(CS(=O)(=O)c2ccc(Br)cc2)o1`
2.23

Query: RAM network inhibition; subject: `Cc1ccsc1-c1nc(CSCC(=O)NCc2ccc3c(c2)OCO3)c(C)o1`
9.63

What value of RAM network inhibition has been recorded for this entry: `Cn1c(=O)c2c(SCc3cccnc3)nc(CC(C)(C)C)nc2n(C)c1=O`
3.24

Could you share which RAM network inhibition value was measured for `CCOC(=O)N1CCC(N2Cc3cccc(C(=O)NCc4ccccn4)c3C2=O)CC1` ?
-1.14

Consider the compound `CCOC(=O)c1csc(NC(=O)C(C)(C)C)n1` and give its measured RAM network inhibition.
-1.57

Data request, read-out RAM network inhibition, for O=C(NCc1ccc(F)cc1)C1CCC(=O)N1CCc1ccccc1 (stereo unspecified)
-1.59

Requested read-out: RAM network inhibition. Entry: `Cc1ccc(Cl)cc1NC(=O)COC(=O)C1CCCC1`
1.69

// RAM network inhibition lookup, key: `Cc1cc(N2CCOCC2)nc(NCc2ccccc2)n1`
4.85
